TEST_SUMMARY: PET hydrolysis product formed (TPA+MHET+BHET, UV-Vis) per mg enzyme (mmol/mg enzyme); higher = more PET depolymerisation activity; extreme values may be limits of the assay
CONDITIONS: PET substrate: cryPow; 60 °C; pH 4.5; 24 h

{"SEQUENCE_ENTRY": "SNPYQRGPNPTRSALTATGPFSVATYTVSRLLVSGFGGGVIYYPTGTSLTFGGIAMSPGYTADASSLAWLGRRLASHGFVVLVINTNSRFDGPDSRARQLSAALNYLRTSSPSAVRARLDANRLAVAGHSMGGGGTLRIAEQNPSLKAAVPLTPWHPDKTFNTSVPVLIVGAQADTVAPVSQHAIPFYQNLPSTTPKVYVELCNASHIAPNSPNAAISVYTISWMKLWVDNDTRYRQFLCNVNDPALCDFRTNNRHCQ [LCC-ICCG I6M]", "PET hydrolysis product formed": 0.02}
{"SEQUENCE_ENTRY": "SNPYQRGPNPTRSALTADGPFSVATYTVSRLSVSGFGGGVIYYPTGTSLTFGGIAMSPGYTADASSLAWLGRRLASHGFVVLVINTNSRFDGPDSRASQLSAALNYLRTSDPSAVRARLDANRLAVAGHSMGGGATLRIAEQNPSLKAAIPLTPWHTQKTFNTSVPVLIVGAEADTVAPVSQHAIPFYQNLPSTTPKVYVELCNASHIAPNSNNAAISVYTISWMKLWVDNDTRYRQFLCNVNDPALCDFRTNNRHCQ [LCC-ICCG DAQI]", "PET hydrolysis product formed": 0.0113}
{"SEQUENCE_ENTRY": "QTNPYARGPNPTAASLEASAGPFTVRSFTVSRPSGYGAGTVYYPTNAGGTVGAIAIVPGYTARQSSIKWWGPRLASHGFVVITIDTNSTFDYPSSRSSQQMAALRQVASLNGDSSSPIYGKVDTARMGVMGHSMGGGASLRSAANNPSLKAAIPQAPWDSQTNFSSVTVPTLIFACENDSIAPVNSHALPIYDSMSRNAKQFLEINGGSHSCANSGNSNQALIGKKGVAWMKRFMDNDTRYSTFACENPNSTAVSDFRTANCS [DuraPETase]", "PET hydrolysis product formed": 0}
